protocolSummary: protease stability score; higher = more stable; yeast display proteolysis, trypsin and chymotrypsin;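 further: relative to predicted unfolded state with 0 unfolded-like and 1 meaning tenfold more protease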
Short version: protease stability score at least 1 is Condition met, less is Condition not met.

**Q:** Please indicate if the recorded protease stability score for `DDLETMFRRLFREWIERAETGDESRLRHLADPHYRSDQGDYDLHGREFAHEFLSRLWKELRFTIHIRHMYVYDGRVEVDGEIRVRINGRETTHKIRIEIVIVDGRIESEHIEIR` meets or exceeds 1.
**A:** Condition met

**Q:** Next up: `DEREEESKRATEKVTRDIHTGDEDLHRHLLDPNAKLVFNGREFVGREEVEKILKWFLDRAGVDKINMTIHDVRVVDGRIKLDGRNNINGVEYTVIWISEKYNGRWFDRMIIFS`
**A:** Condition not met

**Q:** Entry `TELEKLLKEMSDIIHHAWRTGDEHLVRNLADPNVRFHTQIDGRNDERWGREEMEKALHDWLRHFGVKHIIDKSIELQGDKITIKGHVDVDGVKIDVRIFLIVVNGKLKTMKIEHD` please
**A:** Condition met

**Q:** Proceed to `DEDWHKLEETMRRFAKAMLTGDEDDLRKLADPDYRLDVNGRDLHGMESVKHWLDELRLVINDVKVREVHVIDGRLYLDTQVHSIETINGVEIRFVTETHVVIRKIDGKWINREMSIK`
**A:** Condition not met

**Q:** And `SEDEETIKRMVERWEKEFRTGDEKSYIENADPNYRLEVGDKTSIGRESVAKALDDLLRKRGVEIRDIKVHDVKIVGDFIHMDITFRGTQGDKEFDLKVILISKKVNGRWVPEHVHVH` ?
**A:** Condition not met

**Q:** Cool, now `DEIHKDAHRFVELLLRLLRTGDEDSIEKLMDPHAKININGQERIGREETIELALHWRNDDHHIHDMITINGRVDVHGRVKGEFDGRHQEFTFRLIVLKVNGRWVNESHHYI`
**A:** Condition not met

---

protocolSummary: protease stability score; higher = more stable; yeast display proteolysis, trypsin and chymotrypsin;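 further: relative to predicted unfolded state with 0 unfolded-like and 1 meaning tenfold more protease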
quantityKind: protease stability score
Reply: number alone, nothing else.

# example entries with known answers
primarysequence=TDEEEMLRNFWHELIHALHTGDEELFEELADPDTRWYFENRVVIGRETVRNMIDELRIKEVRVERMRIQGDKFHAKLTQRGQINGREVNTETNLHVDIYNGRLKSVELRVK resultvalue=0.888
primarysequence=DEEEELSKIAYHLTEHIWETGDEDLLKELLDPNTQVTQGEWHVHGRESMHRFLRHVRERLGVDQIDVDVKSVRAFNGVVTTHVNLHFNGRTYTMTLFSNKYNGKWTVKSMKIQ resultvalue=1.29

**Q:** Given the sequence `DELEEETREAIRLMFESVKTGDEDSIKHLADPHVRVLINGRDDHGMKILHHLFSRFKNLTIELKRVHVYGEKAEVHTNWHINGRYYHVIWILIKINGRWFIESIEIH` , what is its reported protease stability score?
**A:** 1.61

**Q:** Next sequence: `HELVEEAITMWKEMLVDELTGDEKKTSQNLDPNYKMVIDGQEIHGMEEWSRFLKEIRLHHEDFHVKDARVIDGRVKIDGHIKGTLEINGKRTRTETDVHIILIKINGRWVTHSVHFK`
**A:** 1.24

**Q:** Same question for `DEDTEAAIRILEDFTRHILTGDFERARELLDPHTRFDVNGVDLHGMDEVTRLLRIWKKRFDVWESDVHDVRSYDGRIHIDTHLRVRYDGVEEHTRTIFIFNKVNGRWLIEEIRVR` please.
**A:** 1.44
